Values from patent US20200239543A1

Listed here: items and their measured pKd.
- Test system: T1, human CD47 (human, UniProt Q08722 19-139)
- T1 construct: extracellular domain; also called CD47 ECD
- T1 sequence (Q08722 19-139 limits assumed): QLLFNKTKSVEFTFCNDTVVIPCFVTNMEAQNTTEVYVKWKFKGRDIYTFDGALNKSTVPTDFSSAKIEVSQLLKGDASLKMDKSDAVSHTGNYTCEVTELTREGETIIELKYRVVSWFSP
- Test name: SPR; protein made in E. coli
pKd: −log10 of the molar value.
Property label: pKd

Binder: SIRP-α D1 variant polypeptide of SEQ ID NO: 54 (receptor, engineered SIRP-α D1 domain) EEELQVIQPDKSVSVAAGESAILHCTVTSLFPVGPIQWFRGAGPARELIYNQRQGPFPRVTTVSESTKRENMDFSISISNITPADAGTYYCVKFRKGSPDTEFKSGAGTELSVRAKPS
Test result: 8.57
--
Binder: SIRP-α D1 variant polypeptide of SEQ ID NO: 58 (receptor, engineered SIRP-α D1 domain) EEELQIIQPDKSVSVAAGESAILHCTITSLFPVGPIQWFRGAGPARELIYNQRQGPFPRVTTVSETTKRENMDFSISISNITPADAGTYYCIKFRKGSPDTEFKSGAGTELSVRAKPS
Test result: 9.80
